Assign koff to each entry below.
- system.under.test: T1, human PD-L1 ECD-His (human, UniProt Q9NZQ7 19-238)
- T1 construct: extracellular domain; Analyte in all SPR and BLI runs; also called hPD-L1_ECD-His; hPD-L1 ECD-His; not shown: His tag
- protocol: SPR, hPD-L1-His, PL3 variants
# do not omit the unit; it follows the number

# example entries with known answers
binder	koff
PL3#7 IgG4 (antibody, V domains shown, Human IgG4) VH: QVQLVQSGAEVKKPGSSVKVSCKASGGTFSSYPISWVRQAPGQGLEWIGRIIPILGIANYAQKFQGRVTITADKSTSTAYMELSSLRSEDTAVYYCARSRDGYAFGAFDIWGQGTLVTVSS VL: QSVVTQPPPVSGAPGQRVTISCTGSSSNIGAGYDVHWYQQLPGTAPKLLIYGNSNRPSGVPDRFSGSKSGTSASLAITGLQAEDEADYYCQTYDSSLSARVVFGGGTKLTVL	0.000362 s⁻¹
PL3 IgG2 (antibody, V domains shown, Human IgG2) VH: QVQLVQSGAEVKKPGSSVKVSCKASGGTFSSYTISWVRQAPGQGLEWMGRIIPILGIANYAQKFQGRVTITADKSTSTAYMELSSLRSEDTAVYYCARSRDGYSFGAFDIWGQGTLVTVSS VL: QSVVTQPPPVSGAPGQRVTISCTGSSSNIGAGYDVHWYQQLPGTAPKLLIYGNSNRPSGVPDRFSGSKSGTSASLAITGLQAEDEADYYCQSYDSSLSAPVVFGGGTKLTVL	0.00277 s⁻¹
PL3 IgG1 (antibody, V domains shown) VH: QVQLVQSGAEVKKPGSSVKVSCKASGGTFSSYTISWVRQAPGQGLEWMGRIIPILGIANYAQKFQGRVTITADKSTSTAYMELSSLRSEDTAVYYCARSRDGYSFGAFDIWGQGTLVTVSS VL: QSVVTQPPPVSGAPGQRVTISCTGSSSNIGAGYDVHWYQQLPGTAPKLLIYGNSNRPSGVPDRFSGSKSGTSASLAITGLQAEDEADYYCQSYDSSLSAPVVFGGGTKLTVL	0.00291 s⁻¹

# next binder below
Look up and state reported koff for PL3#7 IgG2 (antibody, V domains shown, Human IgG2) VH: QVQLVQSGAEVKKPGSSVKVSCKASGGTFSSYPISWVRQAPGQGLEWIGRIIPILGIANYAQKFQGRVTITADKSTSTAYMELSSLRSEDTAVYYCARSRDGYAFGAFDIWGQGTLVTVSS VL: QSVVTQPPPVSGAPGQRVTISCTGSSSNIGAGYDVHWYQQLPGTAPKLLIYGNSNRPSGVPDRFSGSKSGTSASLAITGLQAEDEADYYCQTYDSSLSARVVFGGGTKLTVL
0.000327 s⁻¹
